- Tested on: U2OS
- Protocol text: Cell proliferation assay U2OS
- Type: cell-based
- Measurement setup: Homo sapiens, Osteosarcoma, method of Example 5
- Procedure: MCF7 cells were seeded in multi well plates at a density optimized to give approximately 90% confluent cells at the time of harvest. Cells were incubated for 24 hours before addition of compound. Compounds were diluted in complete medium and added to the plates in duplicates. The final concentration of DMSO was maximum 0.5%. […] 120 hours after addition of compounds, the plates were harvested and analyzed by ATPlite 1 Step (Perkin Elmer, cat no 6016739) according to the manufactures recommendation. […]
pEC50: −log10 of the molar value.
Below: a set of entries, each annotated with reported pEC50.

Provide value of pEC50 for this record tested with U2OS: `C(=N/C1CC1)/c1ccnc(CNCCCN2CCCC2)c1` < 5.60

Provide value of pEC50 for this record tested with U2OS: `CCN(CC)CCCCNCc1cc(C=O)ccn1` < 5.60

Data provenance is patent US9650339B2.
